Test system: SF-539 CNS
testName: NCI-60 one-dose screen, 48 h (100 = growth as untreated, 0 = no growth, -100 = all killed)
particulars: 10 µM unless noted
Compounds without any hit were thinned out: in the full panel of roughly 83,000, 20% have a hit.
Here, each record is paired with measured growth data.
Could you give me the number in %? Just the number is fine.

Previously resolved entries follow.
Qu. I would be grateful if you could share the reported growth for `CSc1nc2ccc(C)cc2cc1/C=N/O` .
Ans. 91.1

Qu. Given `CCCCCCNC(=O)Oc1ccc(/C(=C(\C)c2ccc(OC)cc2)c2ccc(OCCN3CCCCC3)cc2)cc1` , state its recorded growth.
Ans. 27.1

Qu. Which value of growth has been reported for `NS(=O)(=O)c1ccc(-n2nc(-c3ccc(Cl)cc3)c3ccccc3c2=O)cc1` in the records?
Ans. 89.4

Qu. Endpoint output: growth of Cc1ccc(C2CC(c3ccc(Nc4ccnc5cc(Cl)ccc45)cc3)=NN2C=O)cc1 (stereo not given) . Value?
Ans. 91

Qu. If you can, please state the reported growth value of CC(=O)CC(c1cccs1)c1c(-c2ccccc2)[nH]c2ccccc12 (stereo not given) .
Ans. 98.9

Continuing:
Qu. Look up growth for this molecule: `Fc1cc(-c2nnc3sc(-c4ccc(Cl)cc4Cl)nn23)c(Cl)cc1Cl`
Ans. 108

Qu. Recorded growth for `COc1cc(-c2nc3sccn3c2-c2ccnc(NCCCNS(=O)(=O)c3ccc(F)cc3)n2)ccc1F` , please?
Ans. 95.6

Qu. Please give the measured growth for this molecule: `COc1ccc(/C=C(\C#N)n2nnc3c(F)cccc32)cc1`
Ans. -27.4

Qu. Recorded growth for `CNC(=O)c1cc(-n2ccc3cc(NC(=O)c4ccc(N5CCOCC5)c(C(F)(F)F)c4)ccc32)ccn1` , please?
Ans. 30.6

Qu. Param item = `CC1=C(C)C(=O)C(Nc2cccc(C(=O)OC(C)(C)C)c2)=C(Br)C1=O` ; retrieve measured growth.
Ans. 94.7

---

Measured growth accompanies every entry in the list below.
Tested on: A549/ATCC NSCLC
testName: NCI-60 one-dose screen, 48 h (100 = growth as untreated, 0 = no growth, -100 = all killed)
particulars: 10 µM unless noted
Compounds without any hit were thinned out: in the full panel of roughly 83,000, 20% have a hit.
Your answer should be a plain number; it is taken to be in %.

Worked examples, 5 compounds total:
Qu. Please look up its growth: `Cc1ccc(/C=C2\Oc3ccc(O)c(O)c3C2=O)cc1`
Ans. 73.1

Qu. May I ask what growth has been recorded for `COc1ccc(-c2ncnc3c2ncn3CC#CCCl)cc1` ?
Ans. 60.1

Qu. # query: growth of entry `c1ccc(OCc2nnc(-c3ccc(Oc4ccccc4)cc3)o2)cc1`
Ans. 96

Qu. Item under review: `Oc1ccc(C#CCOc2ccccc2)cc1CNCCN(Cc1ccccn1)Cc1ccccn1` . Reported growth?
Ans. 8.12

Qu. What value of growth has been reported for the following compound? `COc1ccc(-c2nnc(COc3ccc(Cl)cc3Cl)o2)cc1OC`
Ans. 9.7

Continuing:
Qu. # lookup: growth of `Brc1ccc2[nH]cc(-c3nc(-c4c[nH]c5ccncc45)cs3)c2c1`
Ans. -77.6

Qu. Which value of growth has been reported for `O=c1c2cccc(Cl)c2sc2c(NCCCNCCO)nc3ccccc3c12` in the records?
Ans. 27.5

Qu. Given the compound `CN(C)CCCNc1nc2ccccc2c2c(=O)c3cc(F)ccc3sc12` , what is its reported growth?
Ans. 57

Qu. Query (compound): `COc1ccc(-c2nc(NCCO)[nH]c(=O)c2C#N)cc1` ; field requested: growth
Ans. 98.5
